method_description: Plasma level of pterostilbene by GC-MS
Assay type: in vivo
experimental_parameters: Swiss Webster, mouse, plasma, oral, 2 mg/kg BW, 2 mg/kg BW p.o., after EPM session, read-out: Pterostilbene level in the plasma (± SD)
measurement_kind: concentration at 65 min (ng/mL)
Numeric answer only, unit ng/mL assumed.

# input Please report the recorded concentration at 65 min for `COc1cc(/C=C/c2ccc(O)cc2)cc(OC)c1` .
# output 27
